# Read-out: MicroRNA 122 (MIR122), gene 406906
# assay-explanation: LTEA_HepaRG_MIR122: Life Technologies and Expression Analysis (LTEA) Assay for MicroRNA 122 (MIR122) using HepaRG (AID 2283516); further: the transcript read is the microRNA miR-122
# applied-conditions: mRNA level, 48 h; actives raise or lower the signal
Active and inactive are the calls of the source. How the source made its calls: active means hit-call score of the fitted dose curve at least 0.9, where 1 is the maximum; inactive means score below 0.9.
// allowed return values: active, inactive

So what was the verdict on "Oc1ccccc1-c1ccccc1" in this test? inactive

So what was the verdict on "C=CCC1=C(C)[C@@H](OC(=O)[C@@H]2[C@@H](C=C(C)C)C2(C)C)CC1=O" in this test? inactive

So what was the verdict on "CNC(=S)S" in this test? inactive

So what was the verdict on "COc1cnc(OC)n2nc(NS(=O)(=O)c3c(OCC(F)F)cccc3C(F)(F)F)nc12" in this test? inactive

So what was the verdict on C=CC1(C)OC(=O)N(c2cc(Cl)cc(Cl)c2)C1=O (stereo not drawn) in this test? inactive

So what was the verdict on "COc1nc(NC(C)C)nc(NC(C)C)n1" in this test? inactive

So what was the verdict on "COC(=O)N(OC)c1ccccc1COc1ccn(-c2ccc(Cl)cc2)n1" in this test? active

So what was the verdict on COC(=O)C(C)Oc1ccc(Oc2ccc(Cl)cc2Cl)cc1 (stereo not drawn) in this test? inactive

So what was the verdict on "CON(C)C(=O)Nc1ccc(Cl)c(Cl)c1" in this test? inactive

So what was the verdict on "COP(=S)(OC)Oc1nc(Cl)c(Cl)cc1Cl" in this test? inactive

So what was the verdict on CCON=C(CC)C1=C(O)CC(c2c(C)cc(C)cc2C)CC1=O (stereo not drawn) in this test? inactive

So what was the verdict on "CCNc1nc(Cl)nc(NCC)n1" in this test? inactive

So what was the verdict on "CCCCNC(=O)OCC#CI" in this test? inactive

----------
# assay-explanation: APR_HepG2_MitoMembPot_72hr: Apredica 72-hour HepG2 Assay for Mitochondrial Membrane Potential (AID 2282917)
# applied-conditions: imaging, actives raise or lower the signal
Activity calls are given as the source filed them. The calls were made as follows: active = hit-call score of the fitted dose curve at least 0.9, where 1 is the maximum; inactive = score below 0.9.
// allowed return values: active, inactive

# compound, group
records = [
    ("C=CCC1=C(C)C(OC(=O)C2C(C=C(C)C)C2(C)C)CC1=O (configuration not stated)", "inactive"),
    ("COc1nc(C)nc(NC(=O)NS(=O)(=O)c2ccccc2CCC(F)(F)F)n1", "inactive"),
]

So what was the verdict on "COc1nc(NC(C)C)nc(NC(C)C)n1" in this test? inactive

----------
# assay-explanation: IUF_NPC5_oligodendrocyte_differentiation_120hr: Leibniz Research Institute for Environmental Medicine (IUF) 120-hour Oligodendrocyte Differentiation Assay (NPC5) (AID 2284304);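 further: primary human fetal neural progenitor spheres plated to migrate and differentiate; share of O4-positive cells among Hoechst nuclei found by CNN image analysis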
Records with an inconclusive call do not appear. The source made the active and inactive calls. The calls were made as follows: active = hit-call score of the fitted dose curve at least 0.9, where 1 is the maximum; inconclusive = response in the unintended direction; inactive = score below 0.9.
// allowed return values: active, inactive

The examples below pair each entry with its known result.
# compound, group
rows = [
    ("COP(=S)(OC)Oc1nc(Cl)c(Cl)cc1Cl", "inactive"),
    ("Cc1ccc(-c2c(Cl)nc(C#N)n2S(=O)(=O)N(C)C)cc1", "active"),
    ("CN(C)C(=S)SSC(=S)N(C)C", "active"),
    ("COC(=O)N(OC)c1ccccc1COc1ccn(-c2ccc(Cl)cc2)n1", "active"),
    ("CC(C)(C)c1ccc(CSc2cnn(C(C)(C)C)c(=O)c2Cl)cc1", "active"),
]

So what was the verdict on "CNC(=O)ON=CC(C)(C)SC" in this test? inactive

So what was the verdict on CCCCC(CC)COC(=O)c1ccccc1C(=O)OCC(CC)CCCC (configuration not stated) in this test? inactive
